The measured values listed here are drawn from patent US20210255193A1.

compounds and their reported isoTOP-ABPP reactivity ratio at lysine P61289_K237
# system: PSME3 Proteasome activator complex subunit 3 (Homo sapiens, UniProt P61289)
# Construct: isoTOP-ABPP experiments performed in cell lysates (in vitro); endogenous in cells; host or cells: soluble proteome of human cancer cell lines (MDA-MB-231, Ramos, Jurkat)
# Sequence (P61289 whole entry, one chain of several): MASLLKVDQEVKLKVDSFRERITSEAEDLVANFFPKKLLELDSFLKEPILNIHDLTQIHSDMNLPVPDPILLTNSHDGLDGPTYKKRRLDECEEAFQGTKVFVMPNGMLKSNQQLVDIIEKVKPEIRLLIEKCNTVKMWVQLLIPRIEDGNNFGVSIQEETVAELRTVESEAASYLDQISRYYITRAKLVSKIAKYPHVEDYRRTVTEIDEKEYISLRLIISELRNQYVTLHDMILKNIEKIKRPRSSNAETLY
# protocol: competitive isoTOP-ABPP
# Format: binding
# Set-up: key: R = MS1 peak area ratio, DMSO (heavy) / compound-treated (light)
# experimental_parameters: 50 uM, 231 sol, in vitro
reported_metric: isoTOP-ABPP reactivity ratio at lysine P61289_K237

{"compound_string": "O=C(CCc1coc2cc(F)ccc2c1=O)Oc1c(F)c(F)c(F)c(F)c1F", "value_measured": 1.1}
{"compound_string": "CCn1cc(C(=O)Oc2c(F)c(F)c(F)c(F)c2F)c(=O)c2ccc(C)nc21", "value_measured": 0.6}
{"compound_string": "COc1cc(CCC(=O)Oc2ccc([N+](=O)[O-])cc2[N+](=O)[O-])cc(OC)c1OC", "value_measured": 1.1}
{"compound_string": "O=C(CCc1cn(-c2ccccc2)nc1-c1ccccc1)Oc1ccc([N+](=O)[O-])cc1[N+](=O)[O-]", "value_measured": 0.4}

====

Measured isoTOP-ABPP reactivity ratio at lysine P13639_K235, listed per entry.
# system: EEF2 Elongation factor 2 (Homo sapiens, UniProt P13639)
# Construct: isoTOP-ABPP experiments performed in cell lysates (in vitro); endogenous in cells; host or cells: soluble proteome of human cancer cell lines (MDA-MB-231; Ramos and Jurkat also prepared)
# protocol: competitive isoTOP-ABPP
# Format: binding
# experimental_parameters: 50 uM, 231 sol, in vitro
reported_metric: isoTOP-ABPP reactivity ratio at lysine P13639_K235

{"compound_string": "O=C(Oc1c(F)c(F)c(F)c(F)c1F)c1ccc2ccccc2n1", "system": "EEF2 Elongation factor 2 (Homo sapiens, UniProt P13639)", "value_measured": 1.9}
{"compound_string": "O=C(Oc1c(F)c(F)c(F)c(F)c1F)C1CCN(C(=O)OCc2ccccc2)CC1", "system": "EEF2 Elongation factor 2 (Homo sapiens, UniProt P13639)", "value_measured": 1.1}
{"compound_string": "O=C(CCc1cn(-c2ccccc2)nc1-c1ccccc1)Oc1ccc([N+](=O)[O-])cc1[N+](=O)[O-]", "system": "EEF2 Elongation factor 2 (Homo sapiens, UniProt P13639)", "value_measured": 1.0}

====

# system: RPL10 60S ribosomal protein L10 (Homo sapiens)
# Construct: isoTOP-ABPP experiments performed in cell lysates (in vitro); endogenous in cells; host or cells: soluble proteome of human cancer cell lines (MDA-MB-231; Ramos and Jurkat also prepared)
# protocol: competitive isoTOP-ABPP
# Format: binding
# experimental_parameters: P27635_K121; 50 uM, 231 sol, in vitro
# Experimental: In vitro covalent fragment treatment for isoTOP-ABPP. All compounds were made up as solutions in DMSO (100×) and were used at a final concentration of 50 μM for activated esters and 100 μM for guanidinylating agents. […] R value calculation and processing. The ratios of light and heavy MS1 peaks for each unique peptide were quantified with a CIMAGE software using default parameters (3 MS1 acquisitions per peak and signal to noise threshold set to 2.5). […]
reported_metric: R value (DMSO/fragment) for probe 1 labeling

{"compound": "O=C(CCc1cn(-c2ccccc2)nc1-c1ccccc1)Oc1c(F)c(F)c(F)c(F)c1F", "system": "RPL10 60S ribosomal protein L10 (Homo sapiens)", "value_measured": 0.9}
{"compound": "O=C(Oc1c(F)c(F)c(F)c(F)c1F)C(c1ccccc1)c1ccccc1 [fragment 20, Pentafluorophenyl 2,2-diphenylacetate]", "system": "RPL10 60S ribosomal protein L10 (Homo sapiens)", "value_measured": 0.7}
{"compound": "Cn1cc(CC(=O)Oc2c(F)c(F)c(F)c(F)c2F)c2ccccc21", "system": "RPL10 60S ribosomal protein L10 (Homo sapiens)", "value_measured": 0.9}
{"compound": "O=C(Oc1c(F)c(F)c(F)c(F)c1F)c1cc(C(F)(F)F)cc(C(F)(F)F)c1", "system": "RPL10 60S ribosomal protein L10 (Homo sapiens)", "value_measured": 0.8}

====

# system: RQCD1 Cell differentiation protein RCD1 homolog (Homo sapiens, UniProt Q92600)
# Construct: isoTOP-ABPP experiments performed in cell lysates (in vitro); endogenous in cells; host or cells: soluble proteome of human cancer cell lines (MDA-MB-231; Ramos and Jurkat also prepared)
# Sequence (Q92600 whole entry): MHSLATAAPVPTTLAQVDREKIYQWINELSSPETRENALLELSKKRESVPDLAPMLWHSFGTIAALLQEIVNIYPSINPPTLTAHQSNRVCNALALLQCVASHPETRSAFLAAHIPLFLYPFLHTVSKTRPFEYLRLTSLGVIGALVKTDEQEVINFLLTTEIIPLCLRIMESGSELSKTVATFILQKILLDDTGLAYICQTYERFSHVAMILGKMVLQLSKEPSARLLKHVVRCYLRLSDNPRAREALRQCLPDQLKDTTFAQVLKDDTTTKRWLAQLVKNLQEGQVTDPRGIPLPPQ
# protocol: competitive isoTOP-ABPP
# Type: binding
# experimental_parameters: 50 uM, 231 sol, in vitro
reported_metric: isoTOP-ABPP reactivity ratio at lysine Q92600_K230

{"molecule": "COc1cc(CCC(=O)Oc2ccc([N+](=O)[O-])cc2[N+](=O)[O-])cc(OC)c1OC", "value_measured": 2.5}
{"molecule": "Cn1cc(CC(=O)Oc2ccc([N+](=O)[O-])cc2[N+](=O)[O-])c2ccccc21", "value_measured": 10.2}
{"molecule": "O=C(Oc1ccc([N+](=O)[O-])cc1[N+](=O)[O-])c1cc(C(F)(F)F)cc(C(F)(F)F)c1", "value_measured": 1.0}
{"molecule": "O=C(CCc1cn(-c2ccccc2)nc1-c1ccccc1)Oc1ccc([N+](=O)[O-])cc1[N+](=O)[O-]", "value_measured": 1.0}
{"molecule": "O=C(CCc1coc2cc(F)ccc2c1=O)Oc1c(F)c(F)c(F)c(F)c1F", "value_measured": 1.2}
{"molecule": "O=C(Oc1ccc([N+](=O)[O-])cc1[N+](=O)[O-])C(c1ccccc1)c1ccccc1 [fragment 30, 2,4-Dinitrophenyl 2,2-diphenylacetate]", "value_measured": 1.6}

====

# system: MTOR Serine/threonine-protein kinase mTOR (Homo sapiens)
# Construct: isoTOP-ABPP experiments performed in cell lysates (in vitro); endogenous in cells; host or cells: soluble proteome of human cancer cell lines (MDA-MB-231; Ramos and Jurkat also prepared)
# protocol: competitive isoTOP-ABPP
# Assay type: binding
# experimental_parameters: 50 uM_231_sol_in vitro
Each record here notes measured isoTOP-ABPP ratio, lysine P42345_K2066.

{"compound": "NC(=O)c1cc(C(F)(F)F)cc(C(F)(F)F)c1 [fragment 51, reference compound]", "isoTOP-ABPP ratio, lysine P42345_K2066": 0.8}
{"compound": "O=C(Oc1c(F)c(F)cc(F)c1F)c1cc(C(F)(F)F)cc(C(F)(F)F)c1", "isoTOP-ABPP ratio, lysine P42345_K2066": 1.0}
{"compound": "O=C(ON1C(=O)CCC1=O)c1cc(C(F)(F)F)cc(C(F)(F)F)c1", "isoTOP-ABPP ratio, lysine P42345_K2066": 1.5}
{"compound": "O=C(CCc1ccc2c(c1)OCO2)Oc1ccc([N+](=O)[O-])cc1[N+](=O)[O-]", "isoTOP-ABPP ratio, lysine P42345_K2066": 1.1}
{"compound": "N#Cc1ccc(C(=O)Oc2ccc([N+](=O)[O-])cc2[N+](=O)[O-])cc1 [fragment 44, 2,4-Dinitrophenyl 4-cyanobenzoate]", "isoTOP-ABPP ratio, lysine P42345_K2066": 1.7}
{"compound": "O=C(Oc1c(F)c(F)c(C(F)(F)F)c(F)c1F)c1cc(C(F)(F)F)cc(C(F)(F)F)c1", "isoTOP-ABPP ratio, lysine P42345_K2066": 1.1}

====

# system: STRN3 Striatin-3 (Homo sapiens)
# Construct: isoTOP-ABPP experiments performed in cell lysates (in vitro); endogenous in cells; host or cells: soluble proteome of human cancer cell lines (MDA-MB-231, Ramos, Jurkat)
# Sequence (Q13033 whole entry): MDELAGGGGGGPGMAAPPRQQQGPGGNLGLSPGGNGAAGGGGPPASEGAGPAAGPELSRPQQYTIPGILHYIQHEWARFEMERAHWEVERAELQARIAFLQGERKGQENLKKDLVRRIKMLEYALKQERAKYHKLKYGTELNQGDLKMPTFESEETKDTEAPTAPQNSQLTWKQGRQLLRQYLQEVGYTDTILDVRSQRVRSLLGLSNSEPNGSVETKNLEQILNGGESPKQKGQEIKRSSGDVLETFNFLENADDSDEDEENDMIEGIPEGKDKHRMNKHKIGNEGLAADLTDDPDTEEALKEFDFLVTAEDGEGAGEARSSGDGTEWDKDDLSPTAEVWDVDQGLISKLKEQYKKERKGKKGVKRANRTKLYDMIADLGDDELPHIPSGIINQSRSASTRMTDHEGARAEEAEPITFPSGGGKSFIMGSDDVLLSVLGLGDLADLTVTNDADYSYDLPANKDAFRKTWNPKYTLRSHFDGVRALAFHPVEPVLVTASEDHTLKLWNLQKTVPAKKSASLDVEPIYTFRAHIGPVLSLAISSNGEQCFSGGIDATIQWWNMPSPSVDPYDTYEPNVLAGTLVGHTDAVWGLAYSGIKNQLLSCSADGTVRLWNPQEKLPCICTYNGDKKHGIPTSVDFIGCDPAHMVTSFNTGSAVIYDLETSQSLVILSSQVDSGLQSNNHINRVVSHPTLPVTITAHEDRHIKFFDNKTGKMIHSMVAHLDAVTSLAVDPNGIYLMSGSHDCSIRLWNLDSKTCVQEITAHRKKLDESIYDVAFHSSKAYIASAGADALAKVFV
# protocol: competitive isoTOP-ABPP
# Assay type: binding
# experimental_parameters: 50 uM, in vitro, sol, 231
Rule: isoTOP-ABPP ratio (R) at liganded lysine Q13033_K755 below 0.9 gives 1, anything at or above gives -1.

{"compound": "CC(C)(C)OC(=O)NCCCC(=O)Oc1ccc([N+](=O)[O-])cc1[N+](=O)[O-] [fragment 41]", "classification": -1}
{"compound": "O=C(Oc1ccc([N+](=O)[O-])cc1[N+](=O)[O-])c1ccc2ccccc2n1 [fragment 35]", "classification": -1}
{"compound": "O=C(Oc1ccc([N+](=O)[O-])cc1[N+](=O)[O-])c1ccc(-c2ccccc2)cc1 [fragment 37]", "classification": 1}
{"compound": "O=C(Oc1ccc([N+](=O)[O-])cc1[N+](=O)[O-])c1ccccc1Nc1cccc(C(F)(F)F)c1 [fragment 40]", "classification": -1}
{"compound": "O=C(CCc1coc2cc(F)ccc2c1=O)Oc1ccc([N+](=O)[O-])cc1[N+](=O)[O-] [fragment 36]", "classification": -1}
{"compound": "O=C(Oc1ccc([N+](=O)[O-])cc1[N+](=O)[O-])C1CCN(C(=O)OCc2ccccc2)CC1 [fragment 34]", "classification": -1}
